system: HeLa-p4 cells; experiment: Cell viability assay (MTS) on HeLa-p4 cells; assay type: cell-based; settings: 100 μM; cell viability
Counter-ions that a name gives are not always drawn.
Please respond with true when measured Hela-p4 MTS 100 μM is strictly beneath 100, and with false in all other cases.

1. COc1ccccc1CCN1C[C@H](N)C[C@H](N)C1    true
2. Cc1cccc(CCN2C[C@H](N)C[C@H](N)C2)c1    true
3. COc1ccc(CN2C[C@H](N)C[C@H](N)C2)cc1OC    true
4. CC(C)(C)OC(=O)N[C@@H]1C[C@H](NC(=O)OC(C)(C)C)CN(Cc2ccccc2)C1    true
5. CC(C)(C)OC(=O)N[C@@H]1C[C@H](NC(=O)OC(C)(C)C)CN(Cc2ccco2)C1    true
6. N[C@@H]1C[C@H](N)CN(c2cccc(C(=O)Nc3ccccc3)c2)C1    true
7. N[C@@H]1C[C@H](N)CN(c2ccc(NC(=O)c3ccccc3)cc2)C1    false
8. COc1ccc(N2C[C@H](N)C[C@H](N)C2)cc1    true
9. N[C@@H]1C[C@H](N)CN(Cc2cccc3cnccc23)C1 [ECO02-068-C, trihydrochloride]    true
10. COC(=O)N[C@@H]1C[C@H](NC(=O)OC)CN(CCc2cccc(OC)c2)C1    true
11. CS(=O)(=O)c1ccc(CCN2C[C@H](N)C[C@H](N)C2)cc1    false
12. COC(=O)[C@@H](Cc1ccccc1)N1C[C@H](N)C[C@H](N)C1    true
13. CN(C)c1ccc(CN2C[C@H](N)C[C@H](N)C2)cc1    true
